This collection of values is drawn from ChEMBL document CHEMBL3751835.

# Experiment: Volume of distribution at steady state in cynomolgus monkey at 0.5 mg/kg, iv
# Format: ADME, organism-based, Macaca fascicularis
# Condition Parameters: in vivo, read-out: Vdss
Parameter: Vd (L/kg)
Write the answer as a number in L/kg, unit excluded.

Vd in this record for Cc1cc(Cl)ccc1-c1cccc(COc2ccc([C@H](CC(=O)O)c3nccn3C)cc2)c1 : 1.6

###

# Experiment: Cmax in mouse at 5 mg/kg, po
# Format: ADME, organism-based
# Set-up: dose 5 mg/kg, route oral
# Condition Parameters: in vivo
Parameter: Cmax (µM)
Write the answer as a number in µM, unit excluded.

Cmax in this record for Cc1cc(Cl)ccc1-c1cccc(COc2ccc([C@H](CC(=O)O)c3nccn3C)cc2)c1 : 4.89

###

# Experiment: Oral bioavailability in rat at 2 mg/kg
# Format: ADME, organism-based
# Condition Parameters: in vivo
Parameter: bioavailability (%)
Write the answer as a number in %, unit excluded.

bioavailability in this record for Cc1cc(Cl)ccc1-c1cccc(COc2ccc([C@H](CC(=O)O)c3nccn3C)cc2)c1 : 43

###

# Experiment: Oral bioavailability in cynomolgus monkey at 5 mg/kg
# Type: ADME, organism-based, Macaca fascicularis
# Condition Parameters: in vivo
Parameter: bioavailability (%)
Write the answer as a number in %, unit excluded.

bioavailability in this record for Cc1cc(Cl)ccc1-c1cccc(COc2ccc([C@H](CC(=O)O)c3nccn3C)cc2)c1 : 34

###

# Experiment: Half life in mouse at 1 mg/kg, iv
# Format: ADME, organism-based
# Condition Parameters: in vivo
Parameter: half-life (h)
Write the answer as a number in h, unit excluded.

half-life in this record for Cc1cc(Cl)ccc1-c1cccc(COc2ccc([C@H](CC(=O)O)c3nccn3C)cc2)c1 : 1.5

###

# Experiment: Ratio of drug level in brain to plasma in rat at 5 mg/kg, po after 3 hrs
# Format: ADME, organism-based
Parameter: Kp at 3 h
Simply state the number, no unit and no words.

Kp at 3 h in this record for Cc1cc(Cl)ccc1-c1cccc(COc2ccc([C@H](CC(=O)O)c3nccn3C)cc2)c1 : 0.04

###

# System: MDR1
# Experiment: Permeability across basolateral to apical side in MDCK cells expressing MDR1
# Type: ADME, cell-based, Canis lupus familiaris
# Condition Parameters: dog, read-out: permeability
Parameter: Papp B→A (×10⁻⁶ cm/s)
Write the answer as a number in ×10⁻⁶ cm/s, unit excluded.

Papp B→A in this record for Cc1cc(Cl)ccc1-c1cccc(COc2ccc([C@H](CC(=O)O)c3nccn3C)cc2)c1 : 31

###

# System: Free fatty acid receptor 1 (Homo sapiens, UniProt O14842)
# Sequence (O14842 whole entry): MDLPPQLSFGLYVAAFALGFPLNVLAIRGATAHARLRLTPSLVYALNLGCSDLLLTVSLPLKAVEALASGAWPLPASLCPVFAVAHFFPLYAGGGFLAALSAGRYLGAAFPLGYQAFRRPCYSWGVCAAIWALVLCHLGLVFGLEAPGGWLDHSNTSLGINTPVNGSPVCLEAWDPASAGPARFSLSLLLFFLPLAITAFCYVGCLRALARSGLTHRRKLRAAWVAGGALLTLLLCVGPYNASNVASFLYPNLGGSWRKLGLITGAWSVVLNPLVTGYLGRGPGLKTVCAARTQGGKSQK
# Experiment: Partial agonist activity at human GPR40 expressed in CHO cells measured over 20 secs interval by luminometric analysis in presence of 100% human serum
# Assay type: cell-based
Parameter: EC50
Kindly report the value followed by its unit.

The examples below pair each entry with its known result.
EC50 in this record for Cc1cc(Cl)ccc1-c1cccc(COc2ccc([C@H](CC(=O)O)c3nccn3C)cc2)c1C : 23 µM

EC50 in this record for Cc1cc(F)ccc1-c1cccc(COc2ccc([C@H](CC(=O)O)c3nccn3C)cc2)c1 : 21 µM

EC50 in this record for Cc1c(Cl)cccc1-c1cccc(COc2ccc([C@H](CC(=O)O)c3nccn3C)cc2)c1 : 22 µM

EC50 in this record for Cn1ccnc1[C@@H](CC(=O)O)c1ccc(OCc2cccc(-c3ccc(Cl)cc3Cl)c2)cc1 : 30 µM

EC50 in this record for Cc1cccc(C)c1-c1cccc(COc2ccc([C@H](CC(=O)O)c3nccn3C)cc2)c1 : 29 µM

More entries:
EC50 in this record for CCc1ccccc1-c1cccc(COc2ccc([C@H](CC(=O)O)c3nccn3C)cc2)c1 : 65 µM

EC50 in this record for Cc1cc(Cl)ccc1-c1cccc(COc2ccc([C@H](CC(=O)O)c3nccn3C)cc2)c1 : 10 µM

EC50 in this record for Cc1ccc(F)cc1-c1cccc(COc2ccc([C@H](CC(=O)O)c3nccn3C)cc2)c1 : 42 µM

EC50 in this record for Cc1cc(Cl)ccc1-c1cc(COc2ccc([C@H](CC(=O)O)c3nccn3C)cc2)ccc1C : 9.8 µM
